# System: MDA-MB-175-VII
# Experimental protocol: Cell growth inhibition assay (Cell Titer Glo)
# Assay type: cell-based, Human
# Test conditions: Homo sapiens, 72 h, Breast, HER−, PIK3CA WT, 3 days, read-out: Single Agent (IC50)
pIC50: −log10 of the molar value.
Measure name: pIC50

Note to self: pIC50 recorded for CS(=O)(=O)CCNCc1ccc(-c2ccc3ncnc(Nc4ccc(OCc5cccc(F)c5)c(Cl)c4)c3c2)o1 [Compound A, ditosylate monohydrate] was > 6.70

###

# System: HCC202
# Experimental protocol: Cell growth inhibition assay (Cell Titer Glo)
# Assay type: cell-based, Human
# Test conditions: HCC202, Breast, HER2+, PIK3CA E545K; 3 days; read-out: Single Agent (IC50)
Measure name: IC50 (µM)
Answers are plain numbers, in µM.

Observed IC50 on HCC202, entry COc1ncc(-c2ccc3nccc(-c4ccnnc4)c3c2)cc1NS(=O)(=O)c1ccc(F)cc1F , equals 0.206

###

# Test system: MDA-MB-453
# Experimental protocol: Cell growth inhibition assay (Cell Titer Glo)
# Format: cell-based, Human
# Test conditions: Homo sapiens, 72 h; MDA-MB-453, Breast, HER2+, PIK3CA H1047R; 3 days; read-out: Single Agent (IC50)
Measure name: pIC50
Numbers only, as −log10 of the molar value.

> print(dat)
                                   compound  measure.name  readout.number
1  CS(=O)(=O)CCNCc1ccc(-c2ccc3ncnc(Nc4ccc(OCc5cccc(F)c5)c(Cl)c4)c3c2)o1 [Compound A, ditosylate monohydrate]         pIC50            5.61

Note to self: pIC50 recorded for COc1ncc(-c2ccc3nccc(-c4ccnnc4)c3c2)cc1NS(=O)(=O)c1ccc(F)cc1F was 7.82

###

# Test system: BT-474
# Experimental protocol: Cell growth inhibition assay (Cell Titer Glo)
# Assay type: cell-based, Human
# Test conditions: BT-474, Breast, HER2+, PIK3CA K111N; 3 days; ditosylate monohydrate; read-out: Single Agent (IC50)
Measure name: IC50 (nM)
One number for each entry, in nM.

Note to self: IC50 recorded for CS(=O)(=O)CCNCc1ccc(-c2ccc3ncnc(Nc4ccc(OCc5cccc(F)c5)c(Cl)c4)c3c2)o1 [Compound A, ditosylate monohydrate] was 241

###

# Tested on: JIMT-1
# Experimental protocol: Cell growth inhibition assay (Cell Titer Glo)
# Type: cell-based, Human
# Test conditions: Homo sapiens, JIMT-1, 72 h, JIMT-1 (resistant line), Breast, HER2+, PIK3CA WT; 3 days; read-out: Single Agent (IC50)
Measure name: IC50 (µM)
Numbers only, in µM.

Note to self: IC50 recorded for CS(=O)(=O)CCNCc1ccc(-c2ccc3ncnc(Nc4ccc(OCc5cccc(F)c5)c(Cl)c4)c3c2)o1 [Compound A, ditosylate monohydrate] was 9.62

###

# Tested on: MDA-MB-361
# Experimental protocol: Cell growth inhibition assay (Cell Titer Glo)
# Format: cell-based, Human
# Test conditions: Homo sapiens, 72 h; MDA-MB-361 (resistant line), Breast, HER2+, PIK3CA E545K; 3 days; read-out: Single Agent (IC50)
Measure name: IC50 (nM)
Answers are plain numbers, in nM.

Note to self: IC50 recorded for COc1ncc(-c2ccc3nccc(-c4ccnnc4)c3c2)cc1NS(=O)(=O)c1ccc(F)cc1F was 9

Data origin, for the record: patent US20130137701A1
